Sourced from paper PMC4939265

Listing of recorded melting point by entry.

Lab book: melting point of "COC(=O)[C@H]1Cc2c([nH]c3ccccc23)[C@H](c2ccc(OC)cc2OC)N1" noted as 146 to 147 °C

melting point measured on "COc1ccc([C@H]2c3[nH]c4ccccc4c3C[C@@H]3C(=O)N(c4ccc(Cl)cc4)C(=O)N23)c(OC)c1" = 214 to 216 °C

The compound listed as "CCN1C(=O)[C@@H]2Cc3c([nH]c4ccccc34)[C@H](c3ccc(OC)cc3OC)N2C1=O" has a reported melting point of 217 to 220 °C

* * *

molecular target: recombinant human PDE5 (Homo sapiens, UniProt O76074); experiment: IMAP fluorescence polarization phosphodiesterase assay (TAMRA-cGMP substrate); conditions: 10 concentrations, at least two replicates per concentration; read-out: PDE5 inhibition IC50
MEASUREMENT_LABEL: IC50 (nM)
Report as a plain number; the unit nM is understood.

COMPOUND	TARGET_SYSTEM	IC50, nM
C=CCN1C(=O)[C@@H]2Cc3c([nH]c4ccccc34)[C@@H](c3ccc(OC)cc3OC)N2C1=S [Compound 19]	recombinant human PDE5 (Homo sapiens, UniProt O76074)	560
CCN1C(=O)[C@H]2Cc3c([nH]c4ccccc34)[C@H](c3ccc(OC)cc3OC)N2C1=O [Compound 6]	recombinant human PDE5 (Homo sapiens, UniProt O76074)	720
CCN1C(=O)[C@@H]2Cc3c([nH]c4ccccc34)[C@@H](c3ccc(OC)cc3OC)N2C1=O [Compound 8]	recombinant human PDE5 (Homo sapiens, UniProt O76074)	360

Consider the additional compound presented here.
For the compound COc1ccc([C@@H]2c3[nH]c4ccccc4c3C[C@H]3C(=O)N(C(C)(C)C)C(=O)N23)c(OC)c1 [Compound 12] , the measured IC50 on recombinant human PDE5 (Homo sapiens, UniProt O76074) was 550
